The measured values listed here are drawn from paper PMC8809517.

- ASSAYED_SYSTEM: T1, GFP-9S library array, motif 4 ND N98C;D124P (synthetic construct, N98C;D124P)
- T1 chain: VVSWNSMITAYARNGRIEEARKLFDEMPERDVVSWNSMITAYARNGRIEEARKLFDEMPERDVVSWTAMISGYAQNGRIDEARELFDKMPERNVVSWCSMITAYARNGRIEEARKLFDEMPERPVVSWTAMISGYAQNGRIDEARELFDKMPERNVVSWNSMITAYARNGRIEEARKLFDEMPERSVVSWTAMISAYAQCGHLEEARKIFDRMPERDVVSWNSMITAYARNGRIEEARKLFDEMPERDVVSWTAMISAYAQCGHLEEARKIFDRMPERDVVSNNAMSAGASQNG
- TEST_DETAILS: high-throughput RNA pulldown from lysate on Ni-NTA beads; HRP: 50 mM Tris pH 8, 150 mM NaCl, 1 mM beta-mercaptoethanol, 50 ug/ml BSA, 3 ug/ml yeast RNA, 0.5% heparin; ITC and FP: Tris pH 8, 200 mM KCl, 5% glycerol; MST: 50 mM Tris pH 8, 200 mM NaCl, 1 mM DTT, BSA, heparin, 0.05% Tween 20
- RUN_CONDITIONS: tags: N-terminal His-eGFP; label: 5' Cy5
READOUT_TYPE: pKd
Numbers only, as −log10 of the molar value.

# BINDER, OBSERVED_MEASUREMENT
records = [
    ("AUUAGACGUGA (ssRNA) [Cy5-rpoA-G]", 6.49),
]

Qu. Which measured pKd value corresponds to AUUACACGUGA (ssRNA) [Cy5-rpoA] ?
Ans. 6.57
